- testedSystem: Plasmepsin V (PmV) (Plasmodium falciparum, UniProt Q8I6Z5)
- Construct: PmV was purified directly from parasites; made in house
- Sequence (Q8I6Z5 whole entry): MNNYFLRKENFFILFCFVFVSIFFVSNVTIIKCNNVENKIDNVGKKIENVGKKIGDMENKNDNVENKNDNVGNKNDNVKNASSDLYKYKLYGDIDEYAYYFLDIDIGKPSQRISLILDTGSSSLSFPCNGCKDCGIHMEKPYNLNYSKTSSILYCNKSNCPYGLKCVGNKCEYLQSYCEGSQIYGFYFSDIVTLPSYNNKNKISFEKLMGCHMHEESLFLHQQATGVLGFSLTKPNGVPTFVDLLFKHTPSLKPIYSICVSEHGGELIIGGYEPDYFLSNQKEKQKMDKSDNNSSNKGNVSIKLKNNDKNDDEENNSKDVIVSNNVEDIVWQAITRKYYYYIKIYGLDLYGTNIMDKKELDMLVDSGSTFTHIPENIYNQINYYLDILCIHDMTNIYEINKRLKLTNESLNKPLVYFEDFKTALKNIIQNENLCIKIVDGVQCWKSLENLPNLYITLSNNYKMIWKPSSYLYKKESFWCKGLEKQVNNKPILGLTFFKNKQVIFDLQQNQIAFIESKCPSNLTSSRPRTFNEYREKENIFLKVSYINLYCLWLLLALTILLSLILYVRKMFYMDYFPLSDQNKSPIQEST
- assayComment: PmV inhibition, fluorimetric PExEl cleavage assay
- Type: biochemical
- conditionDescription: 3 μM substrate; tested up to 10 μM; read-out: IC50
measuredEndpoint: IC50

| compound | IC50 |
| --- | --- |
| CC(C)C[C@H](NC(=O)[C@@H](N)CCCCN)C(=O)N[C@@H](CC(C)C)[C@@H](O)CN[C@@H](C)C(=O)N[C@@H](CCC(=O)O)C(=O)N[C@@H](C)C(N)=O [Compound 13a] | 0.77 µM |
| CC(C)C[C@H](NC(=O)[C@@H](N)Cc1c[nH]c2ccccc12)C(=O)N[C@@H](CC(C)C)[C@@H](O)CN[C@@H](CO)C(=O)N[C@@H](CCC(=O)O)C(N)=O [Compound 33a] | > 10 µM |
| CC(C)C[C@H](NC(=O)[C@@H](N)Cc1c[nH]c2ccccc12)C(=O)N[C@@H](CC(C)C)[C@@H](O)CN[C@@H](Cc1ccc(O)cc1)C(=O)N[C@@H](CCC(=O)O)C(N)=O [Compound 32a] | > 10 µM |
| CC(C)C[C@H](NC(=O)[C@@H](N)CCCCN)C(=O)N[C@@H](CC(C)C)[C@@H](O)CN[C@@H](Cc1ccc(O)cc1)C(=O)N[C@@H](CCC(=O)O)C(N)=O [Compound 30a] | > 10 µM |
| CC(C)C[C@H](NC(=O)[C@@H](N)Cc1c[nH]c2ccccc12)C(=O)N[C@@H](CC(C)C)C(O)CN[C@@H](C)C(=O)N[C@@H](CCC(=O)O)C(N)=O (mixture of isomers) [Compound 31] | > 10 µM |

Now turn to the next compound.
Query: Form field: reported IC50 of CC(C)C[C@H](NC(=O)[C@@H](N)Cc1c[nH]c2ccccc12)C(=O)N[C@@H](CC(C)C)[C@@H](O)CN[C@H](C(=O)N[C@@H](CCC(=O)O)C(N)=O)[C@@H](C)O [Compound 34a]
Reply: > 10 µM

Source of measurements: paper PMC4643876
